For each record, write down the corresponding IC50.
Target: human EGFR WT (NIH/3T3 cells, EGF-induced) (Homo sapiens)
Assay: EGFR target modulation in engineered NIH/3T3 cell lines (phospho-EGFR Y1068 AlphaLISA), EGFR WT
Format: cell-based
Settings: engineered NIH/3T3 cells, read-out: NIH3T3 IC50 (μM) EGFR (WT)

These recorded examples may help you get a feel for the data.
{"Compound": "CN(C)C/C=C/C(=O)N1CCC[C@@H](n2c(NC(=O)c3cccc(C(F)(F)F)c3)nc3cc(CO)ccc32)C1 [Example 17-143]", "IC50": "> 10 µM"}
{"Compound": "C=CC(=O)N1CCC[C@@H](n2c(NC(=O)c3ccnc(C)c3)nc3cccc(C)c32)C1 [Example 17-109]", "IC50": "0.88 µM"}
{"Compound": "C=CC(=O)N1CCOCC(n2c(NC(=O)c3ccccc3)nc3cccc(-c4nc(C)no4)c32)C1 (stereo not shown) [Example 17-141]", "IC50": "7.8 µM"}

Please examine the following record next.
// fetch human EGFR WT (NIH/3T3 cells, EGF-induced) (Homo sapiens) IC50 for Cc1cccc2nc(NC(=O)c3cccc(-n4cnnn4)c3)n(C3CCCCN(C(=O)/C=C/CN(C)C)C3)c12 (stereo not shown) [Example 17-53]
0.058 µM

----------
For each record, write down the corresponding pIC50.
Target: HaCaT (EGFR WT) (Homo sapiens, UniProt P00533)
Sequence (P00533 25-1210): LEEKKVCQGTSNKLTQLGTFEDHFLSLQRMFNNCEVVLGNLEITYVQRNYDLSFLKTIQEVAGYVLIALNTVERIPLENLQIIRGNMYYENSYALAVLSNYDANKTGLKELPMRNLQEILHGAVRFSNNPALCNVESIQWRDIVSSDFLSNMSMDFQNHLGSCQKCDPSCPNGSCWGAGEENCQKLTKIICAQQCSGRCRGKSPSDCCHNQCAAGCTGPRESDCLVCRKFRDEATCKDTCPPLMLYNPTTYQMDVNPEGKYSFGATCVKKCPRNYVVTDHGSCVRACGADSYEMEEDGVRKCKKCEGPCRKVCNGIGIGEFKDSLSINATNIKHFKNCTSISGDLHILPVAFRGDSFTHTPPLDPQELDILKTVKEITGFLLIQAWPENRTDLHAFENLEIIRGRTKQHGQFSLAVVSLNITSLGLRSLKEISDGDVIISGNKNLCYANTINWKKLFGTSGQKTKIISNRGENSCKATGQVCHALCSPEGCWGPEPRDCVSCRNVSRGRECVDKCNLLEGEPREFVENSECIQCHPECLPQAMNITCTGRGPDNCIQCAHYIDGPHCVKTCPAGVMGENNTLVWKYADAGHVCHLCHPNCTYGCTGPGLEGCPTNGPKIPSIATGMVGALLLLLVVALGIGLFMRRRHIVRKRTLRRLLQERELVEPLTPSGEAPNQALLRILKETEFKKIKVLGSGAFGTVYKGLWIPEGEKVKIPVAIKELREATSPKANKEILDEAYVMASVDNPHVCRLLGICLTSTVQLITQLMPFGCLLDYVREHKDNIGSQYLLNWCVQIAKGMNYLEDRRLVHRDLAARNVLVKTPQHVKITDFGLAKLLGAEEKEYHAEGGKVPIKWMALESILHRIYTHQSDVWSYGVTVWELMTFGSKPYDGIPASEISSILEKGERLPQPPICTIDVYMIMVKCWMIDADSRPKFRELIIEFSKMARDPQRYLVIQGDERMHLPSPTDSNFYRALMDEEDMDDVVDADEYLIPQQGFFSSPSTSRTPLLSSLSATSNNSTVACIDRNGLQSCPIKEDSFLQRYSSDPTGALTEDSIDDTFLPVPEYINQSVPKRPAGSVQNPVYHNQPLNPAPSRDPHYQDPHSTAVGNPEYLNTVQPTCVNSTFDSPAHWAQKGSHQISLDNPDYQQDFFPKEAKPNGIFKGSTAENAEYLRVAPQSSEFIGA
Assay: EGFR target modulation in HaCaT (EGFR-WT) cell line (phospho-EGFR Y1173 ELISA)
Details: value in parentheses
Numbers only, as −log10 of the molar value.

{"Compound": "Cc1cc(C(=O)Nc2nc3cccc(Cl)c3n2[C@@H]2CCCCN(C(=O)/C=C/CNC3(C)CC3)C2)ccn1 [Example 17-192]", "pIC50": 7.43}
{"Compound": "Cc1cc(C(=O)Nc2nc3cccc(Cl)c3n2[C@@H]2CCCCN(C(=O)/C=C/CNC3CC3)C2)ccn1 [Example 17-190]", "pIC50": 7.33}

Please examine the following record next.
Give its pIC50 value. Item: C=CC(=O)N1CCCC[C@@H](n2c(NC(=O)c3cc(C)nc(C)c3)nc3cc(CN4CC[C@H](F)C4)cc(C)c32)C1 [Example 17-158]
7.17

----------
For each record, write down the corresponding IC50.
Molecular target: human EGFR L858R/T790M (NIH/3T3 cells) (Homo sapiens, UniProt P00533, L858R/T790M)
Sequence (P00533 25-1210 T790M/L858R): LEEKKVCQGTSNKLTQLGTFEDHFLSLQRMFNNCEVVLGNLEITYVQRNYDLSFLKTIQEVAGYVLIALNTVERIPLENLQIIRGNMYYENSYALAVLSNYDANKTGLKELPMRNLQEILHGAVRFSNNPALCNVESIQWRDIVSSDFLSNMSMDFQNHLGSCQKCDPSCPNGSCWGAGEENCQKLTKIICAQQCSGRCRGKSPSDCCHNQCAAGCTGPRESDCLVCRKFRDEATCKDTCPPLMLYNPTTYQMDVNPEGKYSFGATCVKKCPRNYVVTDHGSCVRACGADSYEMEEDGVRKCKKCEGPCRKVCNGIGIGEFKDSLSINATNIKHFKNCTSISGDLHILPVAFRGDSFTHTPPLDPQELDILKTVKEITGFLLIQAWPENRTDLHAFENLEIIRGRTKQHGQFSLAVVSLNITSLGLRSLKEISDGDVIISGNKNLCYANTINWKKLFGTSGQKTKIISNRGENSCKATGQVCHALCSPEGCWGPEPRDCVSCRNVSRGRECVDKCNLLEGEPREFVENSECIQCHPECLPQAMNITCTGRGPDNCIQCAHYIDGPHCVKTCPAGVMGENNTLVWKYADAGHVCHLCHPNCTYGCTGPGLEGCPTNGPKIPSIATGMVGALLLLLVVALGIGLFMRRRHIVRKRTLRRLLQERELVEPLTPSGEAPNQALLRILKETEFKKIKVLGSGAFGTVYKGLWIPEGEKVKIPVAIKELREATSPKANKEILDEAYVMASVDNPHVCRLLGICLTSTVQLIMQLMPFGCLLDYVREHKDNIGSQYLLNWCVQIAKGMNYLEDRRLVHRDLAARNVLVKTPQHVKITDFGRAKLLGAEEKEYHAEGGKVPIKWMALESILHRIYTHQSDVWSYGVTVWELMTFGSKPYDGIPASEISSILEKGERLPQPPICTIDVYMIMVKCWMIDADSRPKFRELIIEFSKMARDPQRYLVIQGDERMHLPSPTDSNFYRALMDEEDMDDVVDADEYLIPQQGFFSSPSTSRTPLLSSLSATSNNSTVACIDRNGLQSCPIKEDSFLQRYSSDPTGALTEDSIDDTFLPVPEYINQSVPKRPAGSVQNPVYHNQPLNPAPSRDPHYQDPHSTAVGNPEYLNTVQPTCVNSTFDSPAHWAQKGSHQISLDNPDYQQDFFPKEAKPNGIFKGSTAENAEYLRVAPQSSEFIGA
Test: EGFR target modulation in engineered NIH/3T3 cell lines (phospho-EGFR Y1068 AlphaLISA), EGFR L858R/T790M
Assay type: cell-based
Conditions: engineered NIH/3T3 cells, read-out: NIH3T3 IC50 (μM) EGFR (L858R/T790M)
Numbers only, in µM.

These recorded examples may help you get a feel for the data.
{"Compound": "C/C=C/C(=O)N1CCCCC(n2c(NC(=O)c3cccc(C(F)(F)F)c3)nc3cccc(C)c32)C1 (stereo not shown) [Example 17-20]", "Outcome Measure": "IC50", "Endpoint Value": 0.073}
{"Compound": "Cc1cccc2nc(NC(=O)c3cccc(C(F)(F)F)c3)n([C@H]3COCCN(C(=O)/C=C/CN(C)C)C3)c12 [Example 17-6]", "Outcome Measure": "IC50", "Endpoint Value": 0.244}

Hi! Can you tell me IC50 for each of these compounds?
1. CC#CC(=O)N1CCCCC(n2c(NC(=O)c3cccc(C(F)(F)F)c3)nc3cccc(C)c32)C1 (stereo not shown) [Example 17-19]
2. C=CC(=O)N1CCCC[C@@H](n2c(NC(=O)c3ccnc(C)c3)nc3cc(CN4CC(OC)C4)cc(C)c32)C1 [Example 17-154]
3. C=CC(=O)N1CCOCC(n2c(NC(=O)c3ccccc3)nc3cccc(-c4nc(C)no4)c32)C1 (stereo not shown) [Example 17-141]
4. C=CC(=O)N1CCOCC(n2c(NC(=O)c3cccc(C(F)(F)F)c3)nc3cccc(C)c32)C1 (stereo not shown) [Example 17-14]
5. Cc1cc(C(=O)Nc2nc3cccc(Cl)c3n2[C@@H]2CCCCN(C(=O)/C=C/CN(C)C)C2)cc(C)n1 [Example 6]
6. Cc1cccc2nc(NC(=O)c3ccnc(C(F)(F)F)c3)n([C@H]3CCCCN(C(=O)/C=C/CN(C)C)C3)c12 (single isomer, unassigned) [Example 21-1]
7. C=CC(=O)N1CCCC[C@@H](n2c(NC(=O)c3ccccc3)nc3cccc(COCCOC)c32)C1 [Example 17-130]

1. 0.044
2. 0.001
3. 0.097
4. 0.003
5. 0.002
6. 0.12
7. 0.016

Hi! Can you tell me IC50 for each of these compounds?
1. C=CC(=O)N1CCCC(n2c(NC(=O)c3cccc(C(F)(F)F)c3)nc3cc(C)ccc32)C1 (stereo not shown) [Example 17-100]
2. Cc1cccc2nc(NC(=O)c3ccc(F)cc3)n(C3CCCCN(C(=O)/C=C/CN(C)C)C3)c12 (stereo not shown) [Example 17-26]
3. Cc1cccc2nc(NC(=O)c3cnco3)n(C3CCCCN(C(=O)/C=C/CN(C)C)C3)c12 (stereo not shown) [Example 17-5]
4. Cc1cc(C(=O)Nc2nc3cccc(Cl)c3n2[C@@H]2CCCCN(C(=O)/C=C/CN3CC[C@H](F)C3)C2)ccn1 [Example 3-2]
5. Cc1cccc2nc(NC(=O)c3cccc(Cl)c3F)n(C3CCCCN(C(=O)/C=C/CN(C)C)C3)c12 (stereo not shown) [Example 17-31]

1: 0.026; 2: 0.005; 3: 0.011; 4: 0.006; 5: 0.005

Hi! Can you tell me IC50 for each of these compounds?
1. Cc1noc(-c2cccc3nc(NC(=O)c4ccccc4)n(C4COCCN(C(=O)/C=C/CN(C)C)C4)c23)n1 (stereo not shown) [Example 17-142]
2. C=CC(=O)N1CCCCC(n2c(NC(=O)c3ccccc3)nc3cccc(C(=O)N4CCS(=O)(=O)CC4)c32)C1 (stereo not shown) [Example 17-115]
3. Cc1cccc2nc(NC(=O)c3cc(F)ccc3F)n(C3CCCCN(C(=O)/C=C/CN(C)C)C3)c12 (stereo not shown) [Example 17-29]
4. C=CC(=O)N1CCCC[C@@H](n2c(NC(=O)c3ccnnc3)nc3cccc(OC(C)C)c32)C1 [Example 17-86]
5. Cc1cccc2nc(NC(=O)c3cccc(C(F)(F)F)c3)n([C@@H]3COCCN(C(=O)/C=C/CN(C)C)C3)c12 [Example 17-7]

1. 0.09
2. 0.165
3. 0.017
4. 0.008
5. 0.003

Hi! Can you tell me IC50 for each of these compounds?
1. C=CC(=O)N1CCCC[C@@H](n2c(NC(=O)c3cccc(C(F)(F)F)c3)nc3cccc(C(=O)OC)c32)C1 [Example 17-96]
2. COc1cccc(C(=O)Nc2nc3cccc(C)c3n2C2CCCCN(C(=O)/C=C/CN(C)C)C2)c1 (stereo not shown) [Example 17-44]
3. C=CC(=O)N1CCCCC(n2c(NC(=O)c3ccccc3)nc3cccc(C(=O)NCC(=O)O)c32)C1 (stereo not shown) [Example 17-137]
4. C=CC(=O)N1CCCC[C@@H](n2c(NC(=O)c3ccnc(C)c3)nc3cc(CN4CCC(F)(F)C4)cc(C)c32)C1 [Example 17-151]
5. Cc1cccc2nc(NC(=O)c3ccnc(F)c3)n(C3CCCCN(C(=O)/C=C/CN(C)C)C3)c12 (stereo not shown) [Example 17-58]
6. C=CC(=O)N1CCCCC(n2c(NC(=O)c3cccc(C(F)(F)F)c3)nc3cc(C)ccc32)C1 (stereo not shown) [Example 17-1]
7. COC1CN(C/C=C/C(=O)N2CCCC[C@@H](n3c(NC(=O)c4ccnc(C)c4)nc4cccc(Cl)c43)C2)C1 [Example 3-14]
8. C=CC(=O)N1CCCC[C@@H](n2c(NC(=O)c3ccnnc3)nc3cccc(OC)c32)C1 [Example 17-84]

1: 0.004; 2: 0.003; 3: 7.9; 4: 0.001; 5: 0.002; 6: 0.011; 7: 0.012; 8: 0.028

----------
Molecular target: EGFR(L858R/T790M) (Homo sapiens, UniProt P00533, L858R/T790M)
Construct: purchased from Carna (GST-a.a. 669-1210)
Sequence (P00533 669-1210 T790M/L858R): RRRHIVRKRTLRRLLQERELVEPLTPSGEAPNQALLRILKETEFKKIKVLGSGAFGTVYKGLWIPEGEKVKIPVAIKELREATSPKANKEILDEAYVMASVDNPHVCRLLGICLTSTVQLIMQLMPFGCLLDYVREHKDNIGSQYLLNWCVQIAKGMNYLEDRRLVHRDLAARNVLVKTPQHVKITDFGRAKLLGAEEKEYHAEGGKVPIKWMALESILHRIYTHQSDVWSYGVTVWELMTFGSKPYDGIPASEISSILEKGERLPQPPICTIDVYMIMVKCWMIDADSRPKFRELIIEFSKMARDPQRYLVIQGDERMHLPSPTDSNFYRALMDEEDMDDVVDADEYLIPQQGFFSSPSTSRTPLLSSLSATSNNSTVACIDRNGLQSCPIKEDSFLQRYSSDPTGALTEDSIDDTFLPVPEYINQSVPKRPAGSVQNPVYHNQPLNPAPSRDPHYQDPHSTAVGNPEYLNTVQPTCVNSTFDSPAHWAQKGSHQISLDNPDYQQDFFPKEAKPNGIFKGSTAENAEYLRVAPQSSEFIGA
Assay: EGFR biochemical assay (HTRF), IC50 determinations
Conditions: EGFR (L858R/T790M) with 90 min pre-incubation; read-out: IC50 (μM) Column B
Outcome Measure: IC50

These recorded examples may help you get a feel for the data.
{"Compound": "C=CC(=O)N1CCC[C@@H](n2c(NC(=O)c3cccc(C(F)(F)F)c3)nc3cc(C(N)=O)ccc32)C1", "IC50": "0.01 µM"}
{"Compound": "Cc1cc(C(=O)Nc2nc3cccc(Cl)c3n2[C@@H]2CCCCN(C(=O)/C=C/CN(C)C)C2)cc(C)n1", "IC50": "< 0.001 µM"}
{"Compound": "C=CC(=O)N1CCCC[C@@H](n2c(NC(=O)c3cc(C)nc(C)c3)nc3cc(CN4CC[C@@H](OC)C4)cc(C)c32)C1", "IC50": "< 0.001 µM"}
{"Compound": "C=CC(=O)N1CCC(n2c(NC(=O)c3cccc(C(F)(F)F)c3)nc3cc(C)ccc32)CC1", "IC50": "0.4 µM"}
{"Compound": "C=CC(=O)N1CCCCC(n2c(NC(=O)c3ccccc3)nc3cccc(C)c32)C1 (centres unmarked)", "IC50": "< 0.001 µM"}

Hi! Can you tell me IC50 for each of these compounds?
1. C=CC(=O)N1CCCC[C@@H](n2c(NC(=O)c3ccccc3)nc3cccc(CN4CCC(O)C4)c32)C1 (some centres unmarked)
2. Cc1cncc(C(=O)Nc2nc3cccc(C)c3n2[C@@H]2CCCCN(C(=O)/C=C/CN(C)C)C2)c1
3. C/C=C/C(=O)N1CCCC[C@@H](n2c(NC(=O)c3cc(C)nc(C)c3)nc3ccc(OCCN4CCCC4)c(Cl)c32)C1
4. Cc1cccc2nc(NC(=O)c3ccc4nccn4c3)n(C3CCCCN(C(=O)/C=C/CN(C)C)C3)c12 (centres unmarked)

< 0.001 µM
< 0.001 µM
0.007 µM
< 0.001 µM

Hi! Can you tell me IC50 for each of these compounds?
1. C=CC(=O)N1CCC[C@@H](n2c(NC(=O)c3cccc(C(F)(F)F)c3)nc3cc(COC)ccc32)C1
2. C=CC(=O)N1CCCC[C@@H](n2c(NC(=O)c3cc(C)nc(C)c3)nc3cc(CN4CC[C@H](OC)C4)ccc32)C1

1. < 0.001 µM
2. < 0.001 µM

Hi! Can you tell me IC50 for each of these compounds?
1. Cc1cc(C(=O)Nc2nc3cccc(Cl)c3n2[C@@H]2CCCCN(C(=O)C3=CCN(C)CC3)C2)ccn1
2. Cc1cccc2nc(NC(=O)c3ccccc3F)n(C3CCCCN(C(=O)/C=C/CN(C)C)C3)c12 (centres unmarked)
3. CN(C)C/C=C/C(=O)N1CCCC[C@@H](n2c(NC(=O)c3ccnnc3)nc3cccc(Cl)c32)C1

1.2 µM
< 0.001 µM
< 0.001 µM
